# System name: GABA-A receptor; anion channel
# Assay details: Binding affinity for Diazepam insensitive (DI) isoform of the benzodiazepine (Bz) binding site on GABAA receptors
# Assay type: protein-complex assay
Checkbox rule: Ki lower than 0.06 µM = t; Ki not lower than 0.06 µM = f.

Study these solved cases before continuing.
CCOC(=O)c1ncn2c1CN(Cc1ccccc1)C(=O)c1cc(Cl)ccc1-2: t
CCOC(=O)c1ncn2c1CN(Cc1ccccc1)C(=O)c1c(Cl)cccc1-2: t

Prompt: Ki strictly < 0.06 µM for this compound? COC(=O)c1ncn2c1CN(C)C(=O)c1cc(F)ccc1-2
Response: f

Prompt: Ki strictly < 0.06 µM for this compound? CCCOC(=O)c1ncn2c1CN=C(c1ccccc1Cl)c1cc(Cl)ccc1-2
Response: f

Prompt: Ki strictly < 0.06 µM for this compound? O=C(OCC1CC1)c1ncn2c1C1CCN1C(=O)c1c(Cl)cccc1-2 (stereo not given)
Response: t

----------
# System name: GABA-A receptor; anion channel
# Assay details: Binding affinity for Diazepam sensitive (DS) isoform of the benzodiazepine (Bz) binding site on GABAA receptors
# Format: protein-complex assay
Checkbox rule: Ki lower than 0.5 nM = true (1); Ki not lower than 0.5 nM = false (0).

Study these solved cases before continuing.
CCOC(=O)c1ncn2c1CN(Cc1ccccc1)C(=O)c1cc(Cl)ccc1-2: false (0)
O=C(OCC1CC1)c1ncn2c1C1CCN1C(=O)c1c(Cl)cccc1-2 (stereo not drawn): true (1)
CC(C)(C)OC(=O)c1ncn2c1C1CCCN1C(=O)c1c-2ccc(F)c1Cl (stereo not drawn): false (0)
CCOC(=O)c1ncn2c1[C@H]1CCCN1C(=O)c1ccccc1-2: false (0)
Cc1nnc2n1-c1ccc(Cl)cc1C(c1ccccc1Cl)=NC2 [TRIAZOLAM]: false (0)

Prompt: Ki strictly < 0.5 nM for this compound? COC(=O)c1ncn2c1CN(C)C(=O)c1cc(F)ccc1-2 [FLUMAZENIL METHYLESTER]
Response: false (0)

Prompt: Ki strictly < 0.5 nM for this compound? CCOC(=O)c1ncn2c1CN(Cc1ccccc1)C(=O)c1c(Cl)cccc1-2
Response: true (1)

----------
# System name: GABA-A receptor; anion channel (Rattus norvegicus) (UniProt O09028+P15431+P18506+P18508+P19969+P20236+P23574+P23576+P28471+P28473+P30191+P62813+P63079+P63138+Q91ZM7+Q9ES14)
# Assay details: Ratio of binding affinity against DI Bz receptor to that of DS Bz receptor
# Assay type: protein-complex assay
# Ratio per entry
No unit in the answer, only the number.

Cc1noc(-c2ncn3c2CN(Cc2ccccc2)C(=O)c2cc(Cl)ccc2-3)n1: 1.3
O=C(OCC1CC1)c1ncn2c1C1CCCN1C(=O)c1cc(Cl)ccc1-2 (stereo not given): 0.22
CCOC(=O)c1ncn2c1CN(C)C(=O)c1c(Cl)cccc1-2: 100
CCOC(=O)c1ncn2c1CN(C)C(=O)c1c(F)cccc1-2: 128
COc1cccc2c1C(=O)N1CCCC1c1c(C(=O)OC(C)(C)C)ncn1-2 (stereo not given): 51
C=CCN1Cc2c(C(=O)OCC)ncn2-c2ccccc2C1=O: 29
CCOC(=O)c1ncn2c1[C@@H]1CCCN1C(=O)c1ccccc1-2: 50
CCCOC(=O)c1ncn2c1CN=C(c1ccccc1Cl)c1cc(Cl)ccc1-2: 539

Prompt: Fill blank: measured Ratio of the molecule O=C(OC1CCCCC1)c1ncn2c1C1CCCN1C(=O)c1cc(Cl)ccc1-2 (stereo not given) is ____.
Response: 0.42

Prompt: Fill blank: measured Ratio of the molecule O=C(OCC1CC1)c1ncn2c1C1CCN1C(=O)c1c(Cl)cccc1-2 (stereo not given) is ____.
Response: 554

Every entry's value here was drawn from ChEMBL document CHEMBL1127024.
